molecular target: AKT2 (Homo sapiens, UniProt P31751); construct: expressed in transfected cells; host or cells: HEK293; experiment: Live cell AKT2 target engagement by NanoBRET competitive probe displacement in HEK293 cells; assay type: binding; conditions: NanoBRET live cell target engagement, HEK293 cells, 2 h at 37° C.; read-out: AKT2 IC50
Sequence (P31751 whole entry): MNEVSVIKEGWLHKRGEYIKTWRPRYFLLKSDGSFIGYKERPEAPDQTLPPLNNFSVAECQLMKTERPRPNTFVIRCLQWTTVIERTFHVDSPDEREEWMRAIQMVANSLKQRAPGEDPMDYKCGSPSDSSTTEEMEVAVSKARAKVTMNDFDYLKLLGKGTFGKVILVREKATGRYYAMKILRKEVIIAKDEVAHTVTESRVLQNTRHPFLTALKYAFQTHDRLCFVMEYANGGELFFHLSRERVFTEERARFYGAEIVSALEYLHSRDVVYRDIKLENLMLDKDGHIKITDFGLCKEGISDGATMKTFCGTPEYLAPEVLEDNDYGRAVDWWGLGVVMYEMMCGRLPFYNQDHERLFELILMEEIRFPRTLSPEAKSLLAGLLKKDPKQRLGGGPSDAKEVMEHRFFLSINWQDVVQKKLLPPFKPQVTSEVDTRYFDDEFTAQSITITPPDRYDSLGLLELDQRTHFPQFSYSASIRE
property: pIC50
On this scale, pIC50 is minus log10 of a concentration expressed in M (mol/L).

| compound | pIC50 |
| --- | --- |
| Nc1ncccc1-c1nc2ccc(-n3cccn3)nc2n1-c1ccc2c(c1)CC[C@@H]2NC(=O)c1ccc(C(F)F)nc1 [Compound 18] | 7.26 |
| Cc1ccc(C(=O)N[C@H]2CCc3cc(-n4c(-c5cccnc5N)nc5ccc(-n6cccn6)nc54)ccc32)c(C(F)F)n1 [Compound 167] | 6.08 |
| COc1cc(-n2cccn2)nc2c1nc(-c1cccnc1N)n2-c1ccc2c(c1)CC[C@@H]2NC(=O)c1ccc(C(F)F)nc1 [Compound 122] | 7.46 |
| Nc1ncccc1-c1nc2ccc(-n3nccn3)nc2n1-c1ccc2c(c1)CC[C@@H]2NC(=O)c1ccnc2occc12 [Compound 379] | 5.89 |

Query Nc1ncccc1-c1nc2ccc(-n3cccn3)nc2n1-c1ccc2c(c1)CC[C@@H]2NC(=O)c1ccc(O)nc1 [Compound 297] on AKT2 (Homo sapiens, UniProt P31751); pIC50 returned: 5.37

Query Cn1nccc1Cc1nncn1[C@H]1CCc2cc(-n3c(-c4cccnc4N)nc4ccc(-n5cccn5)nc43)ccc21 [Compound 222] on AKT2 (Homo sapiens, UniProt P31751); pIC50 returned: 5.85

Query Cc1ccc(C(=O)N[C@H]2CCc3cc(-n4c(-c5cccnc5N)nc5ccc(-c6ncc(C)s6)nc54)ccc32)cn1 [Compound 314] on AKT2 (Homo sapiens, UniProt P31751); pIC50 returned: 7.15

Query COc1cc(C(=O)N[C@H]2CCc3cc(-n4c(-c5cccnc5N)nc5ccc(-n6cccn6)nc54)ccc32)n(C)n1 [Compound 158] on AKT2 (Homo sapiens, UniProt P31751); pIC50 returned: 6.91

Query COc1cc(-n2cccn2)nc2c1nc(-c1cccnc1N)n2-c1ccc2c(c1)CC[C@@H]2NC(=O)c1cccnc1C [Compound 124] on AKT2 (Homo sapiens, UniProt P31751); pIC50 returned: 7.26

Query CC(=O)Nc1ccc(C(=O)N[C@H]2CCc3cc(-n4c(-c5cccnc5N)nc5ccc(-n6cccn6)nc54)ccc32)cc1 [Compound 196] on AKT2 (Homo sapiens, UniProt P31751); pIC50 returned: 7.14

Query N#Cc1cc(C(=O)N[C@H]2CCc3cc(-n4c(-c5cccnc5N)nc5ccc(-n6cccn6)nc54)ccc32)ccc1O [Compound 259] on AKT2 (Homo sapiens, UniProt P31751); pIC50 returned: 5.92

Query COc1nccc(C(=O)N[C@H]2CCc3cc(-n4c(-c5cccnc5N)nc5ccc(-n6cccn6)nc54)ccc32)c1OC [Compound 355] on AKT2 (Homo sapiens, UniProt P31751); pIC50 returned: 7.13

Query Nc1ncccc1-c1nc2ccc(-n3cccn3)nc2n1-c1ccc2c(c1)CC[C@@H]2NC(=O)c1ccc2nccn2c1 [Compound 17] on AKT2 (Homo sapiens, UniProt P31751); pIC50 returned: 7.04

Query Cc1ccncc1C(=O)N[C@H]1CCc2cc(-n3c(-c4cccnc4N)nc4ccc(-n5cccn5)nc43)ccc21 [Compound 31] on AKT2 (Homo sapiens, UniProt P31751); pIC50 returned: 6.33

====

biological target: AKT2 (Homo sapiens); construct: expressed in transfected cells; host or cells: HEK293; assay: Live cell AKT2 target engagement by NanoBRET competitive probe displacement in HEK293 cells; format: binding; conditions: NanoBRET live cell target engagement, HEK293 cells, 2 h at 37° C.; read-out: AKT2 IC50
pIC50: recorded values
On this scale, pIC50 is minus log10 of a concentration expressed in M (mol/L).

# annotated cases, reported pIC50 shown
| compound | pIC50 |
| --- | --- |
| Nc1ncccc1-c1nc2ccc(C#CC3CCC3)nc2n1-c1ccc2c(c1)CC[C@@H]2NC(=O)c1ccc(C(F)F)nc1 [Compound 226] | 5.69 |
| Nc1ncccc1-c1nc2ccc(-n3cccn3)nc2n1-c1ccc2c(c1)CC[C@@H]2NC(=O)c1cncc(OC(F)(F)F)c1 [Compound 138] | 6.55 |
| Cc1nccnc1C(=O)N[C@H]1CCc2cc(-n3c(-c4cccnc4N)nc4ccc(-c5cccc(N6CCN(C)CC6)c5)nc43)ccc21 [Compound 269] | 8.03 |
| COc1ncc(C(=O)N[C@H]2CCc3cc(-n4c(-c5cccnc5N)nc5ccc(-n6cccn6)nc54)ccc32)cc1F [Compound 162] | 7.42 |
| Nc1ncccc1-c1nc2ccc(-n3cccn3)nc2n1-c1ccc2c(c1)CC[C@@H]2NC(=O)c1cccc(F)c1 [Compound 332] | 7.22 |

For this compound ( COc1cc(C(=O)N[C@H]2CCc3cc(-n4c(-c5cccnc5N)nc5ccc(-n6cccn6)nc54)ccc32)nn1C [Compound 216] ), measured pIC50 is 5.86

For this compound ( Cc1ncccc1C(=O)N[C@H]1CCc2cc(-n3c(-c4cccnc4N)nc4ccc(-c5ncco5)nc43)ccc21 [Compound 229] ), measured pIC50 is 5.55

====

target: AKT1 WT (Homo sapiens, UniProt P31749); construct: expressed in transfected cells; host or cells: HEK293; assay: Live cell AKT1 WT target engagement by NanoBRET competitive probe displacement in HEK293 cells; assay type: binding; conditions: NanoBRET live cell target engagement, HEK293 cells, 2 h at 37° C.; read-out: AKT1 WT IC50
Sequence (P31749 whole entry): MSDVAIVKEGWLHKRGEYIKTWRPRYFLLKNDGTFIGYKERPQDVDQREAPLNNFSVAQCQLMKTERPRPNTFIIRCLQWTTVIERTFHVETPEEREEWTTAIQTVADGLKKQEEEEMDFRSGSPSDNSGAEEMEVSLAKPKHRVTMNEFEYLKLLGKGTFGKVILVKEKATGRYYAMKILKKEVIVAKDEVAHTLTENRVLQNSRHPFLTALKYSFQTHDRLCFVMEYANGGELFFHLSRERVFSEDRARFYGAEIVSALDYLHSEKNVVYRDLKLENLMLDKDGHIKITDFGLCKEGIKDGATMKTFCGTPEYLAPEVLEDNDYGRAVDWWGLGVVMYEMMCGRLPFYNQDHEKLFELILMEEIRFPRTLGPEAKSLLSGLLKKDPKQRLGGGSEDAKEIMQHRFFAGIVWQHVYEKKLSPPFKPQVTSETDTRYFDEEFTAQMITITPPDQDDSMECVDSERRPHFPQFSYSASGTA
pIC50: −log10 of the molar value.
Consider the reported pIC50 of an entry and match it to a band in class A = under 7, class B = from 7 up to 8, class C = 8 and over

Solved entries (count: 5):
| compound | label |
| --- | --- |
| COc1cc(C(=O)N[C@H]2CCc3cc(-n4c(-c5cccnc5N)nc5ccc(-n6cccn6)nc54)ccc32)c(C)cn1 | class C |
| Nc1ncccc1-c1nc2ccc(-n3cccn3)nc2n1-c1ccc2c(c1)CC[C@@H]2NC(=O)c1ccnc(F)c1 | class C |
| Nc1ncccc1-c1nc2ccc(-n3cccn3)nc2n1-c1ccc2c(c1)CC[C@@H]2NC(=O)[C@@H]1CCO1 | class A |
| Nc1ncccc1-c1nc2ccc(-n3ccc(F)n3)nc2n1-c1ccc2c(c1)CC[C@@H]2NC(=O)c1ccc(F)c(F)c1 | class B |
| Nc1ncccc1-c1nc2ccc(-n3cccn3)nc2n1-c1ccc2c(c1)CC[C@H]2n1ccnn1 | class A |

[ask] Consider Nc1ncccc1-c1nc2ccc(-n3cccn3)nc2n1-c1ccc2c(c1)CC[C@@H]2NC1CCN(c2cccnc2)CC1 . To which pIC50 class does it belong?
[reply] class B

[ask] Consider Nc1ncccc1-c1nc2ccc(-n3cccn3)nc2n1-c1ccc2c(c1)CC[C@@H]2NC1CCN(C(=O)c2cccnc2)CC1 . To which pIC50 class does it belong?
[reply] class A

[ask] Consider COc1nccc(C(=O)N[C@H]2CCc3cc(-n4c(-c5cccnc5N)nc5ccc(-n6cccn6)nc54)ccc32)c1Cl . To which pIC50 class does it belong?
[reply] class C

[ask] Consider COC1(C(F)F)CC(C(=O)N[C@H]2CCc3cc(-n4c(-c5cccnc5N)nc5ccc(-n6cccn6)nc54)ccc32)C1 (single isomer, unassigned) . To which pIC50 class does it belong?
[reply] class A

====

IC50: recorded values
target: AKT1 WT (Homo sapiens); construct: expressed in transfected cells; host or cells: HEK293; assay: Live cell AKT1 WT target engagement by NanoBRET competitive probe displacement in HEK293 cells; format: binding; details: NanoBRET live cell target engagement, HEK293 cells, 2 h at 37° C.; read-out: AKT1 WT IC50
Quick reminder: number only, in nM, skip the unit.

# annotated cases, reported IC50 shown
| molecule | IC50 [nM] |
| --- | --- |
| Nc1ncccc1-c1nc2ccc(-n3cccn3)nc2n1-c1ccc2c(c1)CC[C@@H]2NC(=O)c1ccc2[nH]nnc2c1 | 25.5 |
| Nc1ncccc1-c1nc2ccc(-n3cccn3)nc2n1-c1ccc2c(c1)CC[C@@H]2NC(=O)c1ccn2nccc2n1 | 34.5 |
| Nc1ncccc1-c1nc2ccc(-n3cccn3)nc2n1-c1ccc2c(c1)CC[C@@H]2NC(=O)c1ccnnc1 | 19.6 |
| Nc1ncccc1-c1nc2ccc(-n3cccn3)nc2n1-c1ccc2c(c1)CC[C@@H]2n1cc(C2CCO2)nn1 (stereo partly shown) [Compound 354] | 39.8 |
| Nc1ncccc1-c1nc2ccc(-n3cccn3)nc2n1-c1ccc2c(c1)CC[C@@H]2NC(=O)c1cc(F)cc(F)c1 | 19.1 |

For this molecule ( Cc1cc2ncn([C@H]3CCc4cc(-n5c(-c6cccnc6N)nc6ccc(-n7cccn7)nc65)ccc43)c(=O)c2cn1 ), measured IC50 is 198

For this molecule ( Cc1cn([C@H]2CCc3cc(-n4c(-c5cccnc5N)nc5ccc(-n6cccn6)nc54)ccc32)nn1 ), measured IC50 is 80.8

For this molecule ( CC(C)(O)c1cn([C@H]2CCc3cc(-n4c(-c5cccnc5N)nc5ccc(-n6cccn6)nc54)ccc32)nn1 ), measured IC50 is 119

For this molecule ( Nc1ncccc1-c1nc2ccc(-c3ccccc3)nc2n1-c1ccc2c(c1)CC[C@@H]2NC1CCN(C(=O)C2CC2)CC1 ), measured IC50 is 19.7
